Reported Relative activity (%), EC50 Ref/EC50 antibody is given for each of the following binders.
Molecular target: T1, human CD112R on Jurkat CD112R effector cells (human, UniProt Q6DKI7 1-326)
T1 sequence (looked up): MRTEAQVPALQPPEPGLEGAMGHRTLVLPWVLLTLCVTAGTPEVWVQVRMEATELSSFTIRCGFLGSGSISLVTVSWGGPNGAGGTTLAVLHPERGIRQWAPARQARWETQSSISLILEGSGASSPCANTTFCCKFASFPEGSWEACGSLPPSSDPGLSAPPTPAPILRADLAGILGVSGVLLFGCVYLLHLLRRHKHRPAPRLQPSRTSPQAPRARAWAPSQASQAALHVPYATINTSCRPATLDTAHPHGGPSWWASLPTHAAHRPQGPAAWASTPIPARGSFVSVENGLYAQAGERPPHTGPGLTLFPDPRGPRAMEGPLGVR
Experiment: cell-based or functional assay
Please give a number only; it is taken to be in %.

Here's what some known entries look like.
[
  {
    "binder": "Chi-55 (antibody, V domains shown, chimeric) VH: DVKLVESGGGLVKLGGSLKLSCAASGFTFSSYHMSWIRQTPEKRLELVAAINSNGINTYYLDTVKGRFTISRDNAKNTLYLQMSSLKSEDTALYYCARHEDYYGFAMDYWGQGTSVTVSS VL: SIVMTQTPKFLLVSAGDRVTITCKASQSVTNDVAWYQQKPGQSPKLLMYYVSNHYTGVPDRFIGSGYGTDFTFTISTVQAEDLAVYFCQQAYRSPWTFGGGTKLEIK",
    "experimental_result": 2310
  },
  {
    "binder": "Chi-62 (antibody, V domains shown, chimeric) VH: DVKLVESGGGLVKLGGSLKLSCAASGFTFSSYHMSWVRQTPEKRLELVAAISRDGDSTYYPDTVKGRFTISRDDAENTLYLQMSSLKSEDTALYYCSRHEDYFGFAMDSWGQGTSVTVSS VL: SIVMTQTPKFLLVSAGDRVTITCKASQSVSNDVAWYQQKPGQSPKLLMYYVSNRFTGVPDRFTGSGYGTDFTFTINTVQAEDLAVYFCQQAYRSPWTFGGGTKLEIK",
    "experimental_result": 2350
  },
  {
    "binder": "Chi-53 (antibody, V domains shown, chimeric) VH: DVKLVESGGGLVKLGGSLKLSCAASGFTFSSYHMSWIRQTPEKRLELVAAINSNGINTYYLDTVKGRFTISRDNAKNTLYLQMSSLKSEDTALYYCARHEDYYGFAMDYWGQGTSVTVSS VL: SIVMTQTPKFLLVSAGDRVTITCKASQSVSNDVAWYQEKPGQSPKLLMYYVSHRFTGVPDRFTGSGYGTDFTFTINTVQAEDLAVYFCHQAYRSPWTFGGGTKLEIK",
    "experimental_result": 2430
  }
]

Note: attention shifts to another entry.
Challenge: Tell me its Relative activity (%), EC50 Ref/EC50 antibody given Chi-36 (antibody, V domains shown, chimeric) VH: EVQLQQSGPELVKPGASVRISCKASGYTFTDYNMHWVKQSHGKSLEWIGYIYPYNGGTGHNQNFKSKATLTVDKSSSTAYMEFRSLTSDDSAVYYCAREDFRHEKMDYWGQGTSVTVSS VL: DIQMTQSPASLSASVGETVTITCRTSDNIYVYLSWYQQKQGKSPQLLVYNAKTLTENVPSRFSGSGSGTQFSLKINSLQPEDFGSYYCQHHYGTPYTFGGGTKLEIK as the entry.
Response given: 1060
